# Test Target: KCNQ1/KCNE1 channels overexpressed in HEK293 cells (Homo sapiens)
# Test Name: QPatch whole-cell patch clamp, KCNQ1/KCNE1
# Assay type: cell-based
# Measurement Conditions: read-out: IC50 KCNQ1/KCNE1; HEK-KCNQ1/KCNE1 cells, QPatch, room temperature
Readout Type: IC50 (nM)
Provide only the numeric value, understood in nM.

// returns reported IC50 for input O=C(Cc1ccc(C(F)(F)F)cc1C(F)(F)F)N[C@@H]1N=C(c2ccccc2)c2ccccc2N(CC(F)(F)F)C1=O [L-673] 9

----------
# Test Target: human Cav 1.2 L-type Ca2+ channel (HEK-CaV1.2 E74 cell line) (Homo sapiens)
# Sequence (Q13936 whole entry): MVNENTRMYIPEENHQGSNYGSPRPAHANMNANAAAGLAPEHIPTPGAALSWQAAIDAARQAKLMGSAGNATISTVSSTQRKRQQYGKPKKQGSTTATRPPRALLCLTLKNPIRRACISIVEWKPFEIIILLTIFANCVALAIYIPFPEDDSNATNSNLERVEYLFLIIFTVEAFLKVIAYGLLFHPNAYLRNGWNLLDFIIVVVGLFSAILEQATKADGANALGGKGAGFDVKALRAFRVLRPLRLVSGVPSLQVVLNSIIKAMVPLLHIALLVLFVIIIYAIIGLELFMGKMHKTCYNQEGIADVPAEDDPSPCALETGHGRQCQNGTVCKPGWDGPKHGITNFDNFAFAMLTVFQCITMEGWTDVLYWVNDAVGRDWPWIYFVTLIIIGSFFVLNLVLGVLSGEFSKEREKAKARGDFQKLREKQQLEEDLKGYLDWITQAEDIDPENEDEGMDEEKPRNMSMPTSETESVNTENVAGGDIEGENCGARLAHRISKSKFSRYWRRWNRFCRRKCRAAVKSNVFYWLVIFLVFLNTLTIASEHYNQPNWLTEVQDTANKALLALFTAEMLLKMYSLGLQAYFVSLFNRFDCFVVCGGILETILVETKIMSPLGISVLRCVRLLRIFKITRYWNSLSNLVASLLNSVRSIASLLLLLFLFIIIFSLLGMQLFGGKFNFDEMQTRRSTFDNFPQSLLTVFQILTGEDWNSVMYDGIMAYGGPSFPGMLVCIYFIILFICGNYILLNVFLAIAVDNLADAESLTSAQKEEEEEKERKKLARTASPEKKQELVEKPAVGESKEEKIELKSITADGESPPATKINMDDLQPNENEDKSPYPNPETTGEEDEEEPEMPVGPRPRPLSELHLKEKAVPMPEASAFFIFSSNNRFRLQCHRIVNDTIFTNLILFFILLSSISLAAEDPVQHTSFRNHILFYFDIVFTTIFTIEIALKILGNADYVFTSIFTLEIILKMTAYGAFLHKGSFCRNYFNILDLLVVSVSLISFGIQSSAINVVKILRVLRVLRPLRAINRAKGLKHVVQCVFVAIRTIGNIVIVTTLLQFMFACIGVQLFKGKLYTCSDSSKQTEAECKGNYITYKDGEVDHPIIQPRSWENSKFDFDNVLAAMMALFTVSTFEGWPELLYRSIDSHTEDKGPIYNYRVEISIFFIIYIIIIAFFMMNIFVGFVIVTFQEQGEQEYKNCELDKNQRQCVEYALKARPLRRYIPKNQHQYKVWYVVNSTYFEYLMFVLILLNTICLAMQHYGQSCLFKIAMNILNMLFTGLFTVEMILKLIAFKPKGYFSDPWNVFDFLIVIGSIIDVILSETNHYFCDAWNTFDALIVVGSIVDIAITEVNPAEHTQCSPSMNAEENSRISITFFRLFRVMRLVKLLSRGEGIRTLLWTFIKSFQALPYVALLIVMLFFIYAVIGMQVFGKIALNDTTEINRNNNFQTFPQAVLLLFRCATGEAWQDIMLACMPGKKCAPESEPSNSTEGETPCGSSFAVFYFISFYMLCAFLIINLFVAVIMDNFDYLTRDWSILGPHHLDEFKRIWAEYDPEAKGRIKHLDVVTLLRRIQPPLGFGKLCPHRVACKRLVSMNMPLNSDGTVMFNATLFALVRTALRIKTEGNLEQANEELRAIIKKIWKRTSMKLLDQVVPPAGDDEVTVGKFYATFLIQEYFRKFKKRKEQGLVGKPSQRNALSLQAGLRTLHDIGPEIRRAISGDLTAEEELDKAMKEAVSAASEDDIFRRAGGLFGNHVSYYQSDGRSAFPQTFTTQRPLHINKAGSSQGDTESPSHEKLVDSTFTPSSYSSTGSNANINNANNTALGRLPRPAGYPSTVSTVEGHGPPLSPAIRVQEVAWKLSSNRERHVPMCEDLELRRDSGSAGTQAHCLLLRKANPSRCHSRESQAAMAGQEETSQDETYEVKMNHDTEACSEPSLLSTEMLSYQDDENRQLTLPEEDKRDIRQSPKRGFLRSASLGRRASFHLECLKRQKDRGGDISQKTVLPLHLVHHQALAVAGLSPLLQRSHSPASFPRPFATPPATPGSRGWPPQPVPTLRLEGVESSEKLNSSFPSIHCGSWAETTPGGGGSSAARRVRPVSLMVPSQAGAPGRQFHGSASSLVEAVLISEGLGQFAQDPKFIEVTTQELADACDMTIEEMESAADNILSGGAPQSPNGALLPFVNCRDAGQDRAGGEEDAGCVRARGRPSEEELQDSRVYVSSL
# Sequence (Q08289 whole entry partner): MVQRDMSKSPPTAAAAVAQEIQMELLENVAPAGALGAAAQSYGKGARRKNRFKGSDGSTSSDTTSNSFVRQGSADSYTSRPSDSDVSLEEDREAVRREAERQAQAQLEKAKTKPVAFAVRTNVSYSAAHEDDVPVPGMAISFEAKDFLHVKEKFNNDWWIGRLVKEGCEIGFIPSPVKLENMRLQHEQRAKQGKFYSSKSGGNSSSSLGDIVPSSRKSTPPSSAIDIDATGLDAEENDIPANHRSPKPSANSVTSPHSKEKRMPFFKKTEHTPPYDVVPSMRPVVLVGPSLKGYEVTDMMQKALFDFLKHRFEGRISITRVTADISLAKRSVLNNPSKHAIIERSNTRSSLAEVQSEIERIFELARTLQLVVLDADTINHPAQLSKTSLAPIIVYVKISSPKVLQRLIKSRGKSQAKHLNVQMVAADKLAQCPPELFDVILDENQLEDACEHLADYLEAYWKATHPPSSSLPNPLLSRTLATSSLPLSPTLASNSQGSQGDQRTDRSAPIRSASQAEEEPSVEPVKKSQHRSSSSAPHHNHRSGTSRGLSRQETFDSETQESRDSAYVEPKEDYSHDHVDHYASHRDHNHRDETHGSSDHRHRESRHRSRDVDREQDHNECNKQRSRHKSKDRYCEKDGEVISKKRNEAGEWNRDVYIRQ
# Sequence (P54289 25-946 partner limits assumed): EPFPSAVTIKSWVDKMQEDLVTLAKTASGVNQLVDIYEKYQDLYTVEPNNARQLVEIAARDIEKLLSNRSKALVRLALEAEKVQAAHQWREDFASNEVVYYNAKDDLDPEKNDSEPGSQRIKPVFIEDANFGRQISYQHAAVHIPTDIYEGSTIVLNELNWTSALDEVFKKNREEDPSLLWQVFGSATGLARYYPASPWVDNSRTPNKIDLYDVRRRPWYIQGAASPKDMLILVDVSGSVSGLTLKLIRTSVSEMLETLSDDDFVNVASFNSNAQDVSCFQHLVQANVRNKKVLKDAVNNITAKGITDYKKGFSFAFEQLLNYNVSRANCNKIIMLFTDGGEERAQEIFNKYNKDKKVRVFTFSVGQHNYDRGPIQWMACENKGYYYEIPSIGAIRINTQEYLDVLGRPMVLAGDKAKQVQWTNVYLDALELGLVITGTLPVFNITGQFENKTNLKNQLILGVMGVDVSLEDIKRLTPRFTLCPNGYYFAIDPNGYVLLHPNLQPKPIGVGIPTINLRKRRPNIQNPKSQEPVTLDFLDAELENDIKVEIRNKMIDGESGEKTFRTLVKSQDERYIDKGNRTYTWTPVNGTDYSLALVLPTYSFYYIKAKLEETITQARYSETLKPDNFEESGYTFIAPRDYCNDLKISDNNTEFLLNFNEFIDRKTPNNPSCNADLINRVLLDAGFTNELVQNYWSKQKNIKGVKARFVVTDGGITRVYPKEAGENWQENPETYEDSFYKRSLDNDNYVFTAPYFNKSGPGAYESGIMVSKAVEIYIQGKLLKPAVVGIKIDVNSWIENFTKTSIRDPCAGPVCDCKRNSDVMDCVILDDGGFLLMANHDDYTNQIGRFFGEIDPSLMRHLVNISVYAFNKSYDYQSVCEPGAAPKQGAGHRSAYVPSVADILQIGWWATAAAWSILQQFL
# Sequence (P54289 947-1103 partner limits assumed): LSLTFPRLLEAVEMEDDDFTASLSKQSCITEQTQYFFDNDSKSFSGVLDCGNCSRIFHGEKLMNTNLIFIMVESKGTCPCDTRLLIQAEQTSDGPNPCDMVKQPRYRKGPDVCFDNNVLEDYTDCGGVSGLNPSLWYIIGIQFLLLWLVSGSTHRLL
# Type: cell-based
# Measurement Conditions: read-out: IC50 CaV1.2; HEK-CaV1.2 cells, Ca2+ influx
Readout Type: pIC50
Worth noting: pIC50 values are minus log10 of concentrations stated in mol/L.

Any idea what its pIC50 is? The compound is O=C(Cc1ccc(C(F)(F)F)cc1C(F)(F)F)N[C@@H]1N=C(c2ccccc2)c2ccccc2N(CC(F)(F)F)C1=O 5.82
